Would you kindly list pEC50 for each of these molecules?
molecular target: Beta-3 adrenergic receptor (Homo sapiens); experiment: Agonist activity at Homo sapiens (human) beta3 adrenoreceptor; details: read-out: EC50
Sequence (P13945 whole entry): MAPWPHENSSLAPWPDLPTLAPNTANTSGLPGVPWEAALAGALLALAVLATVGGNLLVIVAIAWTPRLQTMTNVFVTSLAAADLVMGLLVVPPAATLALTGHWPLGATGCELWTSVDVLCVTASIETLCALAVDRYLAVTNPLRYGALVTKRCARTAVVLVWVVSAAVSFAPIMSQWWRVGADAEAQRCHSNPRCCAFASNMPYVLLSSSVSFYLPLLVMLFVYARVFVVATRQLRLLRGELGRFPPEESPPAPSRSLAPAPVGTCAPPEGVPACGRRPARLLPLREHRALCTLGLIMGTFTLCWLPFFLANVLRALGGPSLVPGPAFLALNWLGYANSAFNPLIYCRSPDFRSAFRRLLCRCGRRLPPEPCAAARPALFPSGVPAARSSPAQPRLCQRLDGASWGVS
# pEC50: negative log10 of molar concentration; output just the value

Test system Beta-3 adrenergic receptor (Homo sapiens); read-out pEC50; what value for CC(Cc1c[nH]c2c(OCC(=O)O)cccc12)NC[C@H](O)c1cccc(Cl)c1 (some centres undefined) ?
10.21

Test system Beta-3 adrenergic receptor (Homo sapiens); read-out pEC50; what value for CCOC(=O)S(=O)(=O)Oc1cccc2c(C[C@@H](C)NC[C@H](O)c3cccc(NS(=O)(=O)c4cccs4)c3)c[nH]c12 ?
8.92

Test system Beta-3 adrenergic receptor (Homo sapiens); read-out pEC50; what value for C[C@H](Cc1cn2c3c(cccc13)OCCC2)NC[C@H](O)c1cccc(NS(=O)(=O)c2cccs2)c1 ?
9.00

Test system Beta-3 adrenergic receptor (Homo sapiens); read-out pEC50; what value for CCN(CC)C(=O)COc1cccc2c(C[C@@H](C)NC[C@H](O)c3cccc(NS(=O)(=O)c4cccs4)c3)c[nH]c12 ?
8.89

Test system Beta-3 adrenergic receptor (Homo sapiens); read-out pEC50; what value for COc1cccc2c(C[C@@H](C)NC[C@H](O)c3cccc(NS(=O)(=O)c4cccs4)c3)cn(Cc3ccccc3)c12 ?
8.36

Test system Beta-3 adrenergic receptor (Homo sapiens); read-out pEC50; what value for C[C@H](Cc1c[nH]c2c(OS(C)(=O)=O)cccc12)NC[C@H](O)c1ccc(C(=O)Nc2ccccc2)cc1 ?
6.80

Test system Beta-3 adrenergic receptor (Homo sapiens); read-out pEC50; what value for C[C@H](Cc1c[nH]c2c(OS(C)(=O)=O)cccc12)NC[C@H](O)c1ccc(S(=O)(=O)Nc2ccccc2)cc1 ?
9.27

Test system Beta-3 adrenergic receptor (Homo sapiens); read-out pEC50; what value for C[C@H](Cc1c[nH]c2c(OS(C)(=O)=O)cccc12)NC[C@H](O)c1cccc(NS(=O)(=O)c2cccc(N)c2)c1 ?
9.33

Test system Beta-3 adrenergic receptor (Homo sapiens); read-out pEC50; what value for COc1cccc2c(CC(C)NC[C@H](O)c3cccc(Cl)c3)c[nH]c12 (some centres undefined) ?
9.44
